The origin of these recorded values is PubChem BioAssay AID652235.

# Subject of test: Matrix metalloproteinase-14 (Homo sapiens) (UniProt P50281)
# Test summary: MT1-MMP activation inhibitors, hit retest, confirmation, single concentration, fluorescence, HT1080 RFP-PRO-GFP cells (AID 652235)
# Assay conditions: GFP and RFP fluorescence ratio, overnight, at 20 µM, active compounds read high
The other results are listed elsewhere or left out.
Reported inhibition values for the following compounds.
// units = %; emit number, no label

Known inhibition results, listed for orientation:
Hey, Matrix metalloproteinase-14 (Homo sapiens) (UniProt P50281) data for COc1ccc(C)cc1Nc1nc(-c2c(C)[nH]c3ccccc23)cs1 : inhibition came out at 4.82

Hey, Matrix metalloproteinase-14 (Homo sapiens) (UniProt P50281) data for O=c1ccc2c(-c3ccccc3S(=O)(=O)O)c3ccc(O)c(O)c3oc-2c1O : inhibition came out at 48.5

Hey, Matrix metalloproteinase-14 (Homo sapiens) (UniProt P50281) data for Cc1cc2ccccc2n1CCNC(=O)COc1ccc2ccccc2c1 : inhibition came out at 6.16

Next:
Hey, Matrix metalloproteinase-14 (Homo sapiens) (UniProt P50281) data for Nc1ccc(Nc2ccccc2)cc1 : inhibition came out at 12.6

Hey, Matrix metalloproteinase-14 (Homo sapiens) (UniProt P50281) data for O=C1CCCC(O)=C1N=Nc1ccc(S(=O)(=O)N2CCOCC2)cc1 : inhibition came out at 4.19

Hey, Matrix metalloproteinase-14 (Homo sapiens) (UniProt P50281) data for O=P(O)(CP(=O)(c1ccccc1)c1ccccc1)c1ccccc1 : inhibition came out at -1.14

Hey, Matrix metalloproteinase-14 (Homo sapiens) (UniProt P50281) data for O=C(NNc1c2ccccc2nc2ccccc12)c1cc2ccccc2cc1O : inhibition came out at 52.9
